Would you mind telling me the reported protein stability index of each entry?
B1: NCK2 (parent)
chain: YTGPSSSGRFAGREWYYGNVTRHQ

- Variants of: B1
- experimentalDetails: protein stability index of a GFP-peptide fusion (GPS, HEK-293T) (PSI 1-6); higher = more stable;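 further: lentivirally expressed fusions sorted by FACS into six bins by GFP to DsRed ratio, PSI derived from sequencing read proportions per bin multiplied by bin number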
- experimentalContext: c terminus: a fixed tail appended
Give bare numbers.

residuechange=S5F assayresult=2.77
residuechange=P4G assayresult=1.99
residuechange=A11P assayresult=1.25

Here are 6 variants. What values of protein stability index were reported for them?
1. A11Y
2. R9G
3. S6G
4. P4D
5. F10K
6. T2C

1: 2.2; 2: 2.17; 3: 1.54; 4: 1.56; 5: 2.25; 6: 2.06

Here are 2 variants. What values of protein stability index were reported for them?
1. R22M
2. W15N

[1.79, 2.73]

Here are 5 variants. What values of protein stability index were reported for them?
1. S7G
2. F10R
3. G12W
4. S7C
5. N19V

1.82
1.66
1.9
3.63
1.61
